For each of the compounds below, state its IC50.
Structures can show the parent of a compound that is named as a salt.
Respond numerically; units are µM and should not be typed.

IC50 of Cc1cccc(NS(=O)(=O)c2ccc(C)c(-c3cnc(N)c(-c4cnn(CC(F)(F)F)c4)c3)c2)n1 on mTOR (Homo sapiens (Human), UniProt P42345)?
2.37

Missing value: IC50, mTOR (Homo sapiens (Human), UniProt P42345), entry Cc1cc(-c2cc(-c3cc(S(=O)(=O)NCC4(C)COC4)ccc3C)cnc2N)on1 [Example 17, hydrochloride] . Fill in?
8.5

Quick check: IC50 on mTOR (Homo sapiens (Human), UniProt P42345), item CCc1cc(-c2cc(-c3cc(S(=O)(=O)NCC(C)(C)O)ccc3C)cnc2N)on1 [Example 4.6, hydrochloride] ?
1.4

Numbers sourced from patent US10112926B2.
